Molecular target: HCV cap-dependent translation
Assay: In vitro translation assay, FF-HCV-Ren construct, cap-dependent (FF luciferase)
pIC50: −log10 of the molar value.
Measured Metric: pIC50

Compound | Test System | pIC50
O=C(/C=C/c1ccoc1)c1c(-c2ccccc2)c2cc(Cl)ccc2[nH]c1=O [Compound 50] | HCV cap-dependent translation | < 4.70
Cc1ccnc(-c2c(C(=O)/C=C/c3ccccn3)c(=O)[nH]c3ccc(Cl)cc23)c1 [Compound 94] | HCV cap-dependent translation | < 4.70
Cn1ccnc1/C=C/C(=O)c1c(-c2ccccc2)c2cc(Cl)ccc2[nH]c1=O [Compound 45] | HCV cap-dependent translation | 4.70 to 5.00
O=C(/C=C/c1cc2ccccc2s1)c1c(-c2ccccc2)c2cc(Cl)ccc2[nH]c1=O [Compound 36] | HCV cap-dependent translation | 5.00 to 5.70
Cn1ccc2cc(/C=C/C(=O)c3c(-c4ccccc4)c4cc(Cl)ccc4[nH]c3=O)ccc21 [Compound 30] | HCV cap-dependent translation | < 4.70

According to the records, this compound CN(C)c1ccc(-c2c(C(=O)/C=C/c3cncc(F)c3)c(=O)[nH]c3ccc(Cl)cc23)cc1 [Compound 109] displays pIC50 of 5.00 to 5.70

# pIC50 (compound: Cc1ccnc(/C=C/C(=O)c2c(-c3ccccc3)c3cc(Cl)ccc3[nH]c2=O)c1 [Compound 70] ) is 5.00 to 5.70

Summary for this compound, O=C(/C=C/c1ccccc1)c1c(C2CCCCC2)c2cc(Cl)ccc2[nH]c1=O [Compound 12] : pIC50 is 4.70 to 5.00

For this compound ( O=C(/C=C/c1ccccn1)c1c(-c2cncc(Cl)c2)c2cc(Cl)ccc2[nH]c1=O [Compound 102] ), measured pIC50 is 4.70 to 5.00

Reported pIC50 ( O=C(/C=C/c1ccccn1)c1c(-c2ccc(Cl)cc2)c2cc(Cl)ccc2[nH]c1=O [Compound 82] ) = 5.00 to 5.70

Quick note, pIC50 for O=C(/C=C/c1cncc(F)c1)c1c(-c2ccc(Br)cc2)c2cc(Cl)ccc2[nH]c1=O [Compound 91] landed at 5.00 to 5.70

The value of pIC50 measured for the compound O=C(/C=C/c1ccccn1)c1c(-c2ccc(C(F)(F)F)cc2)c2cc(Cl)ccc2[nH]c1=O [Compound 84] turned out to be 5.00 to 5.70

Kindly note the recorded pIC50 for CCOC(=O)c1cncc(-c2c(C(=O)/C=C/c3ccccn3)c(=O)[nH]c3ccc(Cl)cc23)c1 [Compound 107] , which is 4.70 to 5.00

----------
Assay: PAMPA Permeability
Assay type: in vitro ADME
Conditions: pH 7.4, Donor pH 7.4, Acceptor pH 7.4, read-out: PAMPA Permeability, Pe, Donor pH 7.4
Measured Metric: Papp (×10⁻⁶ cm/s)
Give the value in ×10⁻⁶ cm/s but do not write ×10⁻⁶ cm/s after it.

Per the record, O=C(/C=C/c1nc2ccccc2[nH]1)c1c(O)nc2ccc(Cl)cc2c1-c1ccccc1 [BI-69A11, reference compound] has Papp of 42

Sample `O=C(/C=C/c1cncc(F)c1)c1c(-c2ccccc2)c2cc(Cl)ccc2[nH]c1=O` ; Papp observed: 820

Value of measured Papp for the entry `O=C(/C=C/c1ccccc1)c1c(C2CCCCC2)c2cc(Cl)ccc2[nH]c1=O` : 379

Papp in this record for `O=C(/C=C/c1nc2cc(Cl)ccc2[nH]1)c1c(-c2ccccc2)c2cc(Cl)ccc2[nH]c1=O` : 2.5

----------
Molecular target: EmCV Cap-independent translation
Assay: In vitro translation assay, FF-EmCV-Ren construct, cap-independent (Ren luciferase)
pIC50: −log10 of the molar value.
Listed next: entries and their corresponding pIC50.

# example entries with known answers
Chemical Structure | pIC50
O=C(/C=C/c1nc2ccccc2[nH]1)c1c(-c2cccnc2)c2cc(Cl)ccc2[nH]c1=O | 5.00 to 5.70
O=C(/C=C/c1ccoc1)c1c(-c2ccccc2)c2cc(Cl)ccc2[nH]c1=O | 4.70 to 5.00
CN(C)c1ccc(-c2c(C(=O)/C=C/c3cncc(F)c3)c(=O)[nH]c3ccc(Cl)cc23)cc1 | 5.00 to 5.70
O=C(CCc1cncc(F)c1)c1c(-c2ccccc2)c2cc(Cl)ccc2[nH]c1=O | < 4.70

The recorded pIC50 for entry `O=C(/C=C/c1cc(Br)cs1)c1c(-c2ccccc2)c2cc(Cl)ccc2[nH]c1=O` equals 5.00 to 5.70

Documented pIC50 of `O=C(/C=C/c1nc2ccccc2n1Cc1ccccc1)c1c(-c2ccccc2)c2cc(Cl)ccc2n(Cc2ccccc2)c1=O` : < 4.70

The measured pIC50 associated with `O=C(/C=C/c1cncnc1)c1c(-c2ccccc2)c2cc(Cl)ccc2[nH]c1=O` reads 5.00 to 5.70

pIC50 in this record for `CCn1c(/C=C/C(=O)c2c(-c3ccccc3)c3cc(Cl)ccc3[nH]c2=O)nc2cc(Cl)c(Cl)cc21` : 4.70 to 5.00

get_value(item= `O=C(/C=C/c1cccs1)c1c(-c2ccccc2)c2cc(Cl)ccc2[nH]c1=O` , readout=pIC50) returns < 4.70

For this molecule ( `O=C(/C(Br)=C\c1cncc(F)c1)c1c(-c2ccccc2)c2cc(Cl)ccc2[nH]c1=O` ), measured pIC50 is 5.00 to 5.70

response.value for `O=C(/C=C/c1ccncc1)c1c(-c2ccccc2)c2cc(Cl)ccc2[nH]c1=O` (field: pIC50) = 5.00 to 5.70

Recorded result, `COc1ccc(-c2c(C(=O)/C=C/c3ccccn3)c(=O)[nH]c3ccc(Cl)cc23)cc1` , pIC50: 5.00 to 5.70

----------
Biological target: HCV cap-independent translation
Assay: In vitro translation assay, FF-HCV-Ren construct, cap-independent (Ren luciferase)
Measured Metric: IC50

So, O=C(/C=C/c1nc2cc(Cl)ccc2[nH]1)c1c(-c2ccccc2)c2cc(Cl)ccc2[nH]c1=O [Compound 62] ? Its IC50 was 2 to 10 µM

// COc1ccc(Cn2c(/C=C/C(=O)c3c(-c4ccccc4)c4cc(Cl)ccc4[nH]c3=O)nc3cc(Cl)ccc32)cc1 [Compound 54] : IC50 value = 2 to 10 µM

Form field IC50, entry O=C(/C=C/c1ccc(Cl)s1)c1c(-c2ccccc2)c2cc(Cl)ccc2[nH]c1=O [Compound 113] : 2 to 10 µM

Notebook: COc1cncc(/C=C/C(=O)c2c(-c3ccccc3)c3cc(Cl)ccc3[nH]c2=O)c1 [Compound 66] , IC50 read as 2 to 10 µM

Looking up Cn1ccnc1/C=C/C(=O)c1c(-c2ccccc2)c2cc(Cl)ccc2[nH]c1=O [Compound 45] , I see its IC50 listed as 2 to 10 µM

The value of IC50 measured for the molecule Cc1ccnc(C#CC(=O)c2c(-c3ccccc3)c3cc(Cl)ccc3[nH]c2=O)c1 [Compound 112] turned out to be > 20 µM

Form: molecule = CN(C)c1ccc(-c2c(C(=O)/C=C/c3ccccn3)c(=O)[nH]c3ccc(Cl)cc23)cc1 [Compound 108] ; IC50 = 2 to 10 µM

Form field IC50, entry O=C(/C=C/c1cncc(F)c1)c1c(-c2cncc(Br)c2)c2cc(Cl)ccc2[nH]c1=O [Compound 103] : 2 to 10 µM

For O=C(/C=C/c1cncc(F)c1)c1c(-c2ccc(OC(F)(F)F)cc2)c2cc(Cl)ccc2[nH]c1=O [Compound 87] the molecule record lists IC50 as 2 to 10 µM

molecule O=C(/C=C/c1nc2ccccc2n1Cc1ccccc1)c1c(-c2ccccc2)c2cc(Cl)ccc2[nH]c1=O [Compound 55] , IC50 observed: 2 to 10 µM

response.value for O=C(/C=C/c1ccccc1)c1c(-c2cccs2)c2cc(Cl)ccc2[nH]c1=O [Compound 10] (field: IC50) = 2 to 10 µM

Value of measured IC50 for the entry COc1ccc(-c2c(C(=O)/C=C/c3ccccn3)c(=O)[nH]c3ccc(Cl)cc23)cc1 [Compound 80] : 2 to 10 µM

Lab book: IC50 of O=C(/C=C/c1cc(Br)cs1)c1c(-c2ccccc2)c2cc(Cl)ccc2[nH]c1=O [Compound 46] noted as 2 to 10 µM

Given item O=C(/C=C/c1ccccn1)c1c(-c2ccc(OC(F)(F)F)cc2)c2cc(Cl)ccc2[nH]c1=O [Compound 88] , the value recorded as its IC50 is 2 to 10 µM

response.value for O=C(/C=C/c1nc2ccccc2[nH]1)c1c(-c2ccc(OC(F)(F)F)cc2)c2cc(Cl)ccc2[nH]c1=O [Compound 2] (field: IC50) = 2 to 10 µM

Notebook: O=C(/C=C/c1nc2ccccc2[nH]1)c1c(-c2ccccc2)c2cc(F)ccc2[nH]c1=O [Compound 20] , IC50 read as > 20 µM

----------
Target: EmCV Cap-independent translation
Assay: In vitro translation assay, FF-EmCV-Ren construct, cap-independent (Ren luciferase)
pIC50: −log10 of the molar value.
# key: entry, value: pIC50

Below, each entry is followed by its recorded pIC50 result.
Chemical Structure | pIC50
O=C(/C=C/c1nc2cc(Cl)ccc2[nH]1)c1c(-c2ccccc2)c2cc(Cl)ccc2[nH]c1=O | 5.00 to 5.70
O=C(/C=C/c1ccccn1)c1c(-c2ccc(Br)cc2)c2cc(Cl)ccc2[nH]c1=O | 5.00 to 5.70
Cc1ccc(-c2c(C(=O)/C=C/c3cncc(F)c3)c(=O)[nH]c3ccc(Cl)cc23)cc1 | 5.00 to 5.70
N#Cc1cncc(/C=C/C(=O)c2c(-c3ccccc3)c3cc(Cl)ccc3[nH]c2=O)c1 | 5.00 to 5.70
O=C(/C=C/c1nc2ccccc2[nH]1)c1c(-c2ccccc2)c2ccncc2[nH]c1=O | 4.70 to 5.00

Briefly, pIC50 measured for `O=C(/C=C/c1ccccn1)c1c(-c2cncc(Cl)c2)c2cc(Cl)ccc2[nH]c1=O` : 4.70 to 5.00

The recorded pIC50 for entry `O=C(/C=C/c1cncc(F)c1)c1c(-c2ccc(Cl)cc2)c2cc(Cl)ccc2[nH]c1=O` equals 5.00 to 5.70

The recorded pIC50 for entry `COc1ccc(Cn2c(/C=C/C(=O)c3c(-c4ccccc4)c4cc(Cl)ccc4[nH]c3=O)nc3cc(Cl)ccc32)cc1` equals 5.00 to 5.70

Lab note: `O=C(/C=C/c1cncc(F)c1)c1c(-c2ccc(Br)cc2)c2cc(Cl)ccc2[nH]c1=O` gave pIC50 of 5.00 to 5.70

Entry `CN(C)c1ccc(/C=C/C(=O)c2c(-c3ccccc3)c3cc(Cl)ccc3[nH]c2=O)cc1` ; pIC50 = < 4.70

Note to self: pIC50 recorded for `COc1ccc2[nH]c(/C=C/C(=O)c3c(-c4ccccc4)c4cc(Cl)ccc4[nH]c3=O)nc2c1` was 5.00 to 5.70

Note to self: pIC50 recorded for `O=C(/C=C/c1nc2ccccc2[nH]1)c1c(-c2ccccc2)c2cc(F)ccc2[nH]c1=O` was < 4.70

compound `COc1cncc(-c2c(C(=O)/C=C/c3cncc(F)c3)c(=O)[nH]c3ccc(Cl)cc23)c1` , pIC50 observed: 5.00 to 5.70

// pIC50 lookup, compound = `Nc1ccc2[nH]c(=O)c(C(=O)CCc3nc4ccccc4[nH]3)c(-c3ccccc3)c2c1` , result: < 4.70

// recorded pIC50 for `Cc1ccc2[nH]c(/C=C/C(=O)c3c(-c4ccccc4)c4cc(Cl)cnc4[nH]c3=O)nc2c1` : 4.70 to 5.00

pIC50 recorded for this compound, `O=C(/C=C/c1ccccn1)c1c(-c2ccc(Cl)cc2)c2cc(Cl)ccc2[nH]c1=O` , is 5.00 to 5.70
